Target: HLA-A*02:01 (Homo sapiens, UniProt P04439, D140Y/D185E/D98H/E176V/E277Q/G131W/G231S/I119V/I121R/I166T/I218V/L300P/L318F/N151K/N90K/P208A/P217A/Q86G/Q94H/R138H/R169H/T345S)
Test: MHC binding assay (UV-ligand exchange, β2m ELISA, peptide exchange yield)
Settings: binding to HLA-A*02:01 ranged by peptide exchange yield (UV-ligand exchange, β2m ELISA)
Measured Parameter: Peptide exchange

65 (IITDLLRSV; listed as Homo sapiens) [compound 65] :: ++++ (>75% = ++++)
8 (ALSFSSSAGPGLLKA; listed as Homo sapiens) [compound 8] :: +++ (>50 = +++)
97 (TVGPGLLGV; listed as Homo sapiens) [compound 97] :: +++ (>50 = +++)
63 (LLAGLLVGV; listed as Homo sapiens) [compound 63] :: +++ (>50 = +++)
26 (GLALLYSGV; listed as Homo sapiens) [compound 26] :: ++++ (>75% = ++++)
42 (FLIDASQRV; listed as Homo sapiens) [compound 42] :: +++ (>50 = +++)

Peptide exchange in this record for 80 (ILLDTPLFLL; listed as Homo sapiens) [compound 80] : +++ (>50 = +++)

Form: substance = 109 (RLIDDMVAQA; listed as Homo sapiens) [compound 109] ; Peptide exchange = +++ (>50 = +++)

Reference for the values: patent US12084522B2
